Catalogue of compounds with associated growth at 10 µM
Test system: SR
Assay: Cytotoxicity against human SR cells assessed as cell growth at 10 uM after 48 hrs by SRB assay relative to control
Assay type: functional
Conditions: read-out: Activity
RESULT TYPE: growth at 10 µM (%)

>>> observed_value("Cc1ccc(Sc2cc3c(c4nsnc24)C(=O)c2ccccc2C3=O)c(C)c1")
70.3
>>> observed_value("O=C1c2ccccc2C(=O)c2c1cc(Cl)c1nsnc21")
-23.9
>>> observed_value("Cc1ccccc1Sc1cc2c(c3nsnc13)C(=O)c1ccccc1C2=O")
23
>>> observed_value("O=C1c2ccccc2C(=O)c2c1cc(Sc1ccccc1)c1nsnc21")
86.4
>>> observed_value("O=C1c2ccccc2C(=O)c2c1cc(Sc1cc(Cl)ccc1Cl)c1nsnc21")
41.1
>>> observed_value("O=C1c2ccccc2C(=O)c2c1cc(Sc1ccccc1Br)c1nsnc21")
2.94

Source listed as ChEMBL document CHEMBL3621107.
